System: human prostate cancer cells (22RV1)
Assay: scratch assay, migration of 22RV1 cells
Assay type: cell-based
Conditions: 22RV1, 10 μM, 48 hours; control group 25.41 ± 5.01
Endpoint: Migration rate (%) (mean ± SD, P)

| Substance | Result |
| --- | --- |
| N25: SEQ ID NO: 1 with substitution N18R and addition of two amino acids at the carboxyl terminal (YRVRFLAKENVTQDAEDRCT) | 13.02 ± 2.27,* % |
| N6: SEQ ID NO: 1 with deletion of four amino acids at the carboxyl terminal (positions 15-18) (YRVRFLAKENVTQD) | 12.31 ± 2.85,* % |
| N4: SEQ ID NO: 1 with deletion of positions 15-18 and positions 1-3 (RFLAKENVTQD) | 13.44 ± 3.24,* % |

###

Test system: human prostate cancer cells (22RV1)
Experiment: scratch assay, migration of 22RV1 cells
Type: cell-based
Settings: 22RV1, 10 μM, 48 hours; control group 25.41 ± 5.01
Ends that are not written are not given here. PEG = not defined here

| Substance | Migration rate (%) (mean ± SD, P) |
| --- | --- |
| N33: SEQ ID NO: 1 with deletion of positions 1-5, addition of one amino acid and PEG modification at the carboxyl terminal (LAKENVTQDAEDNC-{PEG}; reading uncertain) | 10.03 ± 2.15,* % |
| N11: SEQ ID NO: 1 with deletion of positions 15-18 and 1-3 and PEG modification at the amino terminal ({PEG}-RFLAKENVTQD; reading uncertain) | 9.43 ± 2.23,** % |
| N53: SEQ ID NO: 1 with A15R, one amino acid added at each terminal, PEG modification at the carboxyl terminal (FYRVRFLAKENVTQDREDNC-{PEG}; reading uncertain) | 10.75 ± 3.22,* % |
| N2: SEQ ID NO: 1 with deletion of one amino acid (position 18) at the carboxyl terminal (YRVRFLAKENVTQDAED) | 6.48 ± 2.97,** % |
| N27: SEQ ID NO: 1 with addition of one amino acid at the carboxyl terminal and PEG modification at the carboxyl terminal (YRVRFLAKENVTQDAEDNC-{PEG}; reading uncertain) | 14.76 ± 2.79,* % |
| N20: SEQ ID NO: 1 with addition of one amino acid at the amino terminal and deletion of position 18 (RYRVRFLAKENVTQDAED) | 4.88 ± 1.48,** % |
| N3: SEQ ID NO: 1 with deletion of position 18 and PEG modification at the amino terminal ({PEG}-YRVRFLAKENVTQDAED; reading uncertain) | 6.15 ± 4.65,** % |

###

System: human lung cancer cells (A549) subcutaneous xenograft
Test: lung cancer subcutaneous xenograft animal model, intravenous injection
Assay type: in vivo, mice (BALB/c-nu/nu)
Conditions: intravenous 60 mg/kg once every other day, 20 days, control 3373.26 ± 581.44
Ends that are not written are not given here. PEG = not defined here

| Substance | Volume of tumor (mm^3) (mean ± SD) |
| --- | --- |
| N1: polypeptide with the amino acid sequence set forth in SEQ ID NO: 1 (YRVRFLAKENVTQDAEDN) | 1340.25 |
| N51: SEQ ID NO: 1 with A15R, one amino acid added at each terminal, PEG modification at the amino terminal ({PEG}-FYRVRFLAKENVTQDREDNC; reading uncertain) | 1412.56 |
| N54: SEQ ID NO: 1 with A7R, addition of two amino acids and PEG modification at the carboxyl terminal (YRVRFLRKENVTQDAEDNTC-{PEG}; reading uncertain) | 1381.65 |
| N50: SEQ ID NO: 1 with N18R, addition of 2 amino acid at the carboxyl terminal, PEG modification at the amino terminal ({PEG}-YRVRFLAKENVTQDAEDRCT; reading uncertain) | 1463.11 |
| N48: SEQ ID NO: 1 with A7R, deletion of position 11 and position 18, PEG modification at the carboxyl terminal (YRVRFLRKENTQDAED-{PEG}; reading uncertain) | 1558.12 |
